Reported values of log10 of CC50 at 3 days for individual entries
assay_name: in vitro
condition_description: dog, TOX MDCK CC50
parameter: log10 of CC50 at 3 days (log10 of the value in µM)

compound="CC(C)(c1ccccn1)C(CC(=O)O)Nc1nc(-c2c[nH]c3c(F)cc(F)cc23)c(C#N)cc1F (stereo not drawn)" value_observed=-0.40
compound=O=C(N[C@@H]1CCC[C@H](Nc2nc(-c3c[nH]c4c(F)cc(F)cc34)ncc2F)C1)c1cc[nH]n1 value_observed=1.00
compound="CCOC(=O)NCc1cc(F)c(NC(CC(=O)O)C(C)(C)C)nc1-c1c[nH]c2c(F)cc(F)cc12 (stereo not drawn)" value_observed=1.12
compound=O=C(N[C@@H]1CCC[C@H](Nc2nc(-c3c[nH]c4c(F)cc(Cl)cc34)ncc2F)C1)c1ncn[nH]1 value_observed=0.92
compound=CN(C)c1ccnc(C(=O)N[C@@H]2CCC[C@H](Nc3nc(-c4c[nH]c5c(F)cc(Cl)cc45)ncc3F)C2)c1 value_observed=1.03
compound=Cc1[nH]nnc1C(=O)N[C@@H]1CCC[C@H](Nc2nc(-c3c[nH]c4c(F)cc(F)cc34)ncc2F)C1 value_observed=0.92

###

Reported values of CC50 at 3 days for individual entries
assay_name: in vitro
condition_description: dog, TOX MDCK CC50
parameter: CC50 at 3 days (µM)

molecule="Cn1cnc(C(=O)NC2CC(Nc3nc(-c4c[nH]c5c(F)cc(F)cc45)ncc3F)CC(C)(C)C2)c1 (stereo not shown)" measure_unit=µM comparison_operator== value_observed=3.9
molecule="CS(=O)(=O)NCc1cc(F)c(N[C@@H]2CCC[C@H](NC(=O)N3CCCC3)C2)nc1-c1c[nH]c2c(F)cc(F)cc12 (racemic)" measure_unit=µM comparison_operator=> value_observed=25
molecule=Cc1nc(C(=O)N[C@@H]2CCC[C@H](Nc3nc(-c4c[nH]c5c(F)cc(Cl)cc45)ncc3F)C2)no1 measure_unit=µM comparison_operator=> value_observed=25
molecule=Cn1cnc(C(=O)N[C@@H]2CCC[C@H](Nc3nc(-c4c[nH]c5c(F)cc(Cl)cc45)c(C#N)cc3F)C2)c1 measure_unit=µM comparison_operator== value_observed=10.2

###

assay_name: in vitro
condition_description: dog, TOX MDCK CC50
parameter: CC50 at 3 days (µM)

compound="Cn1nnc(C(=O)N[C@@H]2CCC[C@H](Nc3nc(-c4c[nH]c5c(F)cc(F)cc45)ncc3F)C2)n1 [Compound 153]" comparison_operator=> value_observed=1
compound="Cc1ocnc1C(=O)N[C@@H]1CCC[C@H](Nc2nc(-c3c[nH]c4c(F)cc(F)cc34)ncc2F)C1 [Compound 132]" comparison_operator== value_observed=11.4
compound="Cc1ncn(C)c1C(=O)N[C@@H]1CCC[C@H](Nc2nc(-c3c[nH]c4c(F)cc(Cl)cc34)ncc2F)C1 [Compound 45]" comparison_operator=> value_observed=25
compound="Cc1cnc(C(=O)N[C@@H]2CCC[C@H](Nc3nc(-c4c[nH]c5c(F)cc(Cl)cc45)ncc3F)C2)cn1 (relative stereo) [Compound 11]" comparison_operator== value_observed=9
compound="O=C(N[C@@H]1CCC[C@H](Nc2nc(-c3c[nH]c4c(F)cc(F)cc34)ncc2F)C1)c1ccc(O)nn1 [Compound 203]" comparison_operator=> value_observed=25
compound="O=C(N[C@@H]1CCC[C@H](Nc2nc(-c3c[nH]c4c(F)cc(F)cc34)ncc2F)C1)c1cncnc1 [Compound 138]" comparison_operator=> value_observed=25
compound="Nc1cc(C(=O)N[C@@H]2CCC[C@H](Nc3nc(-c4c[nH]c5c(F)cc(Cl)cc45)ncc3F)C2)ncn1 [Compound 66]" comparison_operator== value_observed=5.2
compound="N#Cc1cc(F)c(N[C@@H]2CCC[C@H](NC(=O)N3CCCC3)C2)nc1-c1c[nH]c2c(F)cc(F)cc12 [Compound 162]" comparison_operator=> value_observed=23
compound="Cn1ccc(C(C)(C)C(CC(=O)O)Nc2nc(-c3c[nH]c4c(F)cc(F)cc34)c(C#N)cc2F)n1 (stereo not drawn) [Compound 236]" comparison_operator== value_observed=1.5
compound="O=C(N[C@@H]1CCC[C@H](Nc2nc(-c3c[nH]c4c(F)cc(F)cc34)ncc2F)C1)c1ccno1 (racemic) [Compound 97]" comparison_operator=> value_observed=22.7
compound="Cn1nc(C(=O)O)cc1C(=O)N[C@@H]1CCC[C@H](Nc2nc(-c3c[nH]c4c(F)cc(F)cc34)ncc2F)C1 (relative stereo) [Compound 159]" comparison_operator=> value_observed=25
compound="Cn1cnc(C(=O)N[C@@H]2CCC[C@H](Nc3nc(-c4c[nH]c5c(F)cc(F)cc45)ncc3F)C2)n1 [Compound 134]" comparison_operator== value_observed=10.3
compound="O=C(N[C@@H]1CCC[C@H](Nc2nc(-c3c[nH]c4c(F)cc(F)cc34)ncc2F)C1)N1CCCC1 (racemic) [Compound 1]" comparison_operator== value_observed=10.2
compound="COc1cccc(C(=O)N[C@@H]2CCC[C@H](Nc3nc(-c4c[nH]c5c(F)cc(F)cc45)ncc3F)C2)n1 [Compound 98]" comparison_operator== value_observed=14.7
compound="CC(C)c1cc(C(=O)N[C@H]2CCC[C@@H](Nc3nc(-c4c[nH]c5c(F)cc(F)cc45)c(C(F)(F)F)cc3F)C2)no1 (racemic) [Compound 182]" comparison_operator=> value_observed=25
compound="CC(C)(C)C(CC(=O)O)Nc1nc(-c2c[nH]c3c(F)cc(Cl)cc23)ncc1F (stereo not drawn) [Compound 39]" comparison_operator== value_observed=0.86
compound="O=C(O)[C@H]1[C@@H]2CC[C@@H](C2)[C@@H]1Nc1nc(-c2c[nH]c3c(F)cc(F)cc23)ncc1F (racemic) [Compound 217]" comparison_operator== value_observed=5
compound="Nc1cc(C(=O)N[C@@H]2CCC[C@H](Nc3nc(-c4c[nH]c5c(F)cc(Cl)cc45)ncc3F)C2)n[nH]1 [Compound 59]" comparison_operator== value_observed=7.8
compound="Cc1ocnc1C(=O)N[C@@H]1CCC[C@H](Nc2nc(-c3c[nH]c4c(F)cc(Cl)cc34)ncc2F)C1 [Compound 48]" comparison_operator== value_observed=5
compound="CC1(C(CC(N)=O)Nc2nc(-c3c[nH]c4c(F)cc(F)cc34)c(C#N)cc2F)CCCC1 (stereo not drawn) [Compound 246]" comparison_operator== value_observed=6.9
compound="Cn1cnc(C(=O)N[C@H]2CCC[C@@H](Nc3nc(-c4c[nH]c5c(F)cc(F)cc45)c(C(F)(F)F)cc3F)C2)c1 (relative stereo) [Compound 16]" comparison_operator== value_observed=3.9

###

Reported values of CC50 at 3 days for individual entries
assay_name: in vitro
condition_description: dog, TOX MDCK CC50
parameter: CC50 at 3 days

compound="O=C(N[C@H]1CCC[C@@H](Nc2nc(-c3c[nH]c4c(F)cc(F)cc34)c(C(F)(F)F)cc2F)C1)c1cnccn1 (racemic)" value_observed="> 25 µM"
compound=Cn1nccc1C(=O)N[C@@H]1CCC[C@H](Nc2nc(-c3c[nH]c4c(F)cc(Cl)cc34)ncc2F)C1 value_observed="> 25 µM"
compound="Cc1cc(F)c2[nH]cc(-c3nc(N[C@@H]4CCC[C@@H](NC(=O)c5cncs5)C4)c(F)cc3C#N)c2c1 (racemic)" value_observed="> 21.8 µM"

###

assay_name: in vitro
condition_description: dog, TOX MDCK CC50
parameter: CC50 at 3 days

compound=O=C(N[C@@H]1CCC[C@H](Nc2nc(-c3c[nH]c4c(F)cc(F)cc34)ncc2F)C1)c1cnccn1 parameter="CC50 at 3 days" value_observed="> 25 µM"
compound=O=C(N[C@@H]1CCC[C@H](Nc2nc(-c3c[nH]c4c(F)cc(F)cc34)ncc2F)C1)c1ncccn1 parameter="CC50 at 3 days" value_observed="> 24 µM"
compound="O=C(O)c1ccccc1C(=O)N[C@@H]1CCC[C@H](Nc2nc(-c3c[nH]c4c(F)cc(F)cc34)ncc2F)C1 (relative stereo)" parameter="CC50 at 3 days" value_observed="> 5 µM"
compound="Cc1nc(C(=O)N[C@@H]2CCC[C@H](Nc3nc(-c4c[nH]c5c(F)cc(F)cc45)ncc3F)C2)c(C)o1 (racemic)" parameter="CC50 at 3 days" value_observed="> 25 µM"
compound="Cn1cnc(C(=O)N[C@@H]2CCC[C@H](Nc3nc(-c4c[nH]c5c(F)cc(C#N)cc45)ncc3F)C2)c1 (racemic)" parameter="CC50 at 3 days" value_observed="> 25 µM"
compound="N#Cc1cc(F)c(N[C@H]2CCC[C@@H](NC(=O)c3ccccn3)C2)nc1-c1c[nH]c2c(F)cc(F)cc12 (racemic)" parameter="CC50 at 3 days" value_observed="> 25 µM"
compound="Cc1cc(C(=O)N[C@@H]2CCC[C@H](Nc3nc(-c4c[nH]c5c(F)cc(F)cc45)c(C#N)cc3F)C2)nn1C (racemic)" parameter="CC50 at 3 days" value_observed="> 25 µM"
compound=O=C(N[C@@H]1CCC[C@H](Nc2nc(-c3c[nH]c4c(F)cc(Cl)cc34)ncc2F)C1)c1cccc(O)n1 parameter="CC50 at 3 days" value_observed="> 19.4 µM"
compound="CC(=O)Nc1cc(C(=O)N[C@@H]2CCC[C@H](Nc3nc(-c4c[nH]c5c(F)cc(F)cc45)ncc3F)C2)n(C)n1 (relative stereo)" parameter="CC50 at 3 days" value_observed="> 25 µM"
compound=O=C(N[C@@H]1CCC[C@H](Nc2nc(-c3c[nH]c4c(F)cc(F)cc34)ncc2F)C1)c1ncn[nH]1 parameter="CC50 at 3 days" value_observed="> 25 µM"
